The values you see were collected from patent US4259328A.

Form field: inhibition at 10 µM (one value per entry).
target: dopamine-β-hydroxylase (Bos taurus, UniProt P15101); construct: from tissue; host or cells: bovine adrenal (gland) preparations; test: Dopamine-β-hydroxylase inhibiting activity (DBH) on bovine adrenal (gland) preparations; assay type: biochemical; conditions: 10^-5 mole/liter; read-out: Enzyme inhibiting activity, DBH
Sequence (P15101 whole entry): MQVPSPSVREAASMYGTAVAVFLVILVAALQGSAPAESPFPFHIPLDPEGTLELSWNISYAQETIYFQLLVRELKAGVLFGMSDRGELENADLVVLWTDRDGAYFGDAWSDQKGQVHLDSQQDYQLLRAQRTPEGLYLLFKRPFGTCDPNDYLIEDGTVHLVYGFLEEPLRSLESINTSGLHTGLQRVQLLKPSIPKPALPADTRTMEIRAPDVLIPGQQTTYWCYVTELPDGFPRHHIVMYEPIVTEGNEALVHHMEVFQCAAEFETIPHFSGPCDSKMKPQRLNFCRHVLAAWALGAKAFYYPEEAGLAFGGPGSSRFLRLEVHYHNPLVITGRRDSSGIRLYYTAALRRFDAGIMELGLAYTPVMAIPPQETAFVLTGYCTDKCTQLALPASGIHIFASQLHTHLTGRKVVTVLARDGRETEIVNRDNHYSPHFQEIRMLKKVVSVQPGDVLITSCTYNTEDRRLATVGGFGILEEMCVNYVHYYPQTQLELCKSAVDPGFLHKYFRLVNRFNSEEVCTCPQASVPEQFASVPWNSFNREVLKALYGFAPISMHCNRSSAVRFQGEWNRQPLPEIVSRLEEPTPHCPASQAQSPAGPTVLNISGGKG
Metric: inhibition at 10 µM (%)

# Molecule, Metric, Observed Value
rows = [
    ("CCOC(=O)C1CCCCC1=NNc1ccc(Cl)nn1 (centres unmarked) [Example 17]", "inhibition at 10 µM", 10),
    ("CCOC(=O)CC(=NNc1ccc(Cl)nn1)c1ccccc1 [Example 34]", "inhibition at 10 µM", 40),
    ("CC(N)(Cc1ccc(O)cc1)C(=O)O (racemic) [D,L-α-methyl-4-hydroxy-phenyl-alanine, reference compound]", "inhibition at 10 µM", 0),
    ("O=C(O)C1CCCCC1=NNc1cccnn1 (centres unmarked) [Example 19]", "inhibition at 10 µM", 10),
    ("CC(CC(=O)OC(C)(C)C)=NNc1ccc(Cl)nn1 [Example 30]", "inhibition at 10 µM", 22),
    ("COC(=O)CC(=NNc1ccc(Cl)nn1)C(=O)OC [Example 64]", "inhibition at 10 µM", 0),
    ("CC(=NNc1cccnn1)c1ccccc1 [Example 13]", "inhibition at 10 µM", 10),
    ("CCOC(=O)CC(=NNc1ccc(Cl)nn1)c1cccnc1 [Example 37]", "inhibition at 10 µM", 41),
    ("O=C(O)C1CCCCC1=NNc1ccc(Cl)nn1 (centres unmarked) [Example 18]", "inhibition at 10 µM", 32),
    ("COC(=O)CCC(C)=NNc1ccc(Cl)nn1 [Example 23]", "inhibition at 10 µM", 50),
    ("CCOC(=O)CCCCC(C)=NNc1ccc(Cl)nn1 [Example 49]", "inhibition at 10 µM", 50),
    ("c1cnnc(NN=C2CCCCC2)c1 [Example 12, Cyclohexylidene-3-pyridazinylhydrazone]", "inhibition at 10 µM", 10),
    ("CC(CCC(=O)O)=NNc1ccc(C)nn1 [Example 55]", "inhibition at 10 µM", 0),
    ("CC12CCC(CC1=NNc1cccnn1)C2(C)C (centres unmarked) [Example 3]", "inhibition at 10 µM", 0),
    ("CCOC(=O)CC(C)=NNc1ccc(Cl)nn1 [Example 20]", "inhibition at 10 µM", 87),
    ("CC(CC(=O)OC(C)(C)C)=NNc1ccc(N2CCOCC2)nn1 [Example 52]", "inhibition at 10 µM", 0),
    ("CCCOC(=O)CC(C)=NNc1ccc(Cl)nn1 [Example 28]", "inhibition at 10 µM", 71),
    ("CCOC(=O)CC=NNc1ccc(Cl)nn1 [Example 65]", "inhibition at 10 µM", 44),
    ("CCCCc1ccc(C(=O)O)nc1 [Fusaric acid, reference compound]", "inhibition at 10 µM", 100),
    ("COC(=O)CC(C)=NNc1ccc(Cl)nn1 [Example 24]", "inhibition at 10 µM", 50),
]

----------
List of inhibition at 100 µM values.
target: tyrosine-hydroxylase (Rattus norvegicus); construct: on rat adrenal homogenate; from tissue; host or cells: rat adrenal homogenate; experiment: In vitro tyrosine-hydroxylase inhibiting activity (TH) on rat adrenal homogenate; type: biochemical; conditions: 10^-4 mole/liter; read-out: Enzyme inhibiting activity, TH
Sequence (P04177 whole entry): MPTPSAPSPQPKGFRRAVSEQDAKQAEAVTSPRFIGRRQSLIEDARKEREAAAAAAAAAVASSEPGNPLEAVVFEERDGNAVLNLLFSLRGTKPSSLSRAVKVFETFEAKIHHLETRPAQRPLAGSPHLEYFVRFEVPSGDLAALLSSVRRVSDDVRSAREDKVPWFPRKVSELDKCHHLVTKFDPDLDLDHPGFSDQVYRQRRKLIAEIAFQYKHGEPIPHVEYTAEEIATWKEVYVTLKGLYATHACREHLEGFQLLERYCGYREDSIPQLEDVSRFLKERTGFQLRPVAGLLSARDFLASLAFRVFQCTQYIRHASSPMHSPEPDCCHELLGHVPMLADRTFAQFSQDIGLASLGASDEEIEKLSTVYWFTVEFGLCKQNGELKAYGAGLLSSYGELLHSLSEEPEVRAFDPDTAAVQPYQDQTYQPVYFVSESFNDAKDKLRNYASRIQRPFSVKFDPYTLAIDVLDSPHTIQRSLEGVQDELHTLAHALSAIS

# Compound, inhibition at 100 µM
data = [
    ("CCOC(=O)C1CCCCC1=NNc1ccc(Cl)nn1 (stereo not shown)", "85%"),
    ("CCOC(=O)CC(C)=NNc1cccnn1", "100%"),
    ("CCCCc1ccc(C(=O)O)nc1 [Fusaric acid, reference compound]", "0%"),
    ("CCOC(=O)CC(C)=NNc1ccc(Cl)nn1", "100%"),
]
